system: Hepatitis C virus; experiment: Inhibition of hepatitis C virus RNA replication in a subgenomic replicon cell line; assay type: functional, organism-based, Hepacivirus hominis
Please use y for EC50 under 80 µM and n for everything else, ties included.

Please indicate whether the reported EC50 of CSc1ncnc2c1ncn2C1O[C@H](CO)[C@@H](O)[C@@]1(C)O (some centres undefined) is strictly below 80 µM.
y

Please indicate whether the reported EC50 of C[C@]1(O)C(n2cnc3c(N4CCOCC4)ncnc32)O[C@H](CO)[C@H]1O (some centres undefined) is strictly below 80 µM.
n

Please indicate whether the reported EC50 of CNCCN(C)c1ncnc2c1ncn2C1O[C@H](CO)[C@@H](O)[C@@]1(C)O (some centres undefined) is strictly below 80 µM.
n

Please indicate whether the reported EC50 of C[C@]1(O)C(n2cnc3c(O)ncnc32)O[C@H](CO)[C@H]1O (some centres undefined) is strictly below 80 µM.
y

Please indicate whether the reported EC50 of CN(O)c1ncnc2c1ncn2C1O[C@H](CO)[C@@H](O)[C@@]1(C)O (some centres undefined) is strictly below 80 µM.
y

Please indicate whether the reported EC50 of CNc1ncnc2c1ncn2C1O[C@H](CO)[C@@H](O)[C@@]1(C)O (some centres undefined) is strictly below 80 µM.
y

Please indicate whether the reported EC50 of C[C@]1(O)C(n2cnc3c(N4CCCS4)ncnc32)O[C@H](CO)[C@H]1O (some centres undefined) is strictly below 80 µM.
y

Please indicate whether the reported EC50 of CCNC(=O)N(O)c1ncnc2c1ncn2C1O[C@H](CO)[C@@H](O)[C@@]1(C)O (some centres undefined) is strictly below 80 µM.
y

Please indicate whether the reported EC50 of C[C@]1(O)C(n2cnc3c(C(=N)S)ncnc32)O[C@H](CO)[C@H]1O (some centres undefined) is strictly below 80 µM.
n

Please indicate whether the reported EC50 of CCOc1ccccc1CNc1ncnc2c1ncn2C1O[C@H](CO)[C@@H](O)[C@@]1(C)O (some centres undefined) is strictly below 80 µM.
y

Please indicate whether the reported EC50 of CC(C)NC(=O)N(O)c1ncnc2c1ncn2C1O[C@H](CO)[C@@H](O)[C@@]1(C)O (some centres undefined) is strictly below 80 µM.
y

Please indicate whether the reported EC50 of "C[C@@]1(O)[C@H](O)[C@@H](CO)O[C@H]1n1cnc2c(N)ncnc21" is strictly below 80 µM.
y

Please indicate whether the reported EC50 of CN(C)c1ncnc2c1ncn2C1O[C@H](CO)[C@@H](O)[C@@]1(C)O (some centres undefined) is strictly below 80 µM.
y

Please indicate whether the reported EC50 of CCNC(=O)N(O)C1=NCNc2c1ncn2C1O[C@H](CO)[C@@H](O)[C@@]1(C)O (some centres undefined) is strictly below 80 µM.
n

Please indicate whether the reported EC50 of CCOc1ncnc2c1ncn2C1O[C@H](COP(=O)(OCCSC(C)=O)OCCSC(C)=O)[C@@H](O)[C@@]1(C)O (some centres undefined) is strictly below 80 µM.
y

Please indicate whether the reported EC50 of CCONc1ncnc2c1ncn2C1O[C@H](CO)[C@@H](O)[C@@]1(C)O (some centres undefined) is strictly below 80 µM.
y

Please indicate whether the reported EC50 of C[C@]1(O)C(n2cnc3c(NCCN)ncnc32)O[C@H](CO)[C@H]1O (some centres undefined) is strictly below 80 µM.
y

Please indicate whether the reported EC50 of C[C@]1(O)C(n2cnc3c(NO)ncnc32)O[C@H](CO)[C@H]1O (some centres undefined) is strictly below 80 µM.
y

Please indicate whether the reported EC50 of COC(=N)c1ncnc2c1ncn2C1O[C@H](CO)[C@@H](O)[C@@]1(C)O (some centres undefined) is strictly below 80 µM.
n

Please indicate whether the reported EC50 of C[C@]1(O)C(n2cnc3c(-c4ccsc4)ncnc32)O[C@H](CO)[C@H]1O (some centres undefined) is strictly below 80 µM.
n

Please indicate whether the reported EC50 of CONc1ncnc2c1ncn2C1O[C@H](CO)[C@@H](O)[C@@]1(C)O (some centres undefined) is strictly below 80 µM.
y
